Just for reference, ChEMBL document CHEMBL3885881 is where these values come from.

Record form. Attribute: ERYTHROCYTE COUNT. Fill in for each entry.
Organism: Rattus norvegicus
run_description: DrugMatrix - Regimen: Daily Repeat
Type: toxicity, organism-based, Sprague-Dawley
Design: regimen Daily Repeat, gender Male, age 6-8 weeks
test_settings: in vivo, po, 0 mg/kg, 120 h, tissue Blood, route oral GAVAGE, dose level Control, time 5 day, vehicle 100 % WATER
Supply the numeric figure in x10E6/uL, leaving out any unit text.

Form field: reported ERYTHROCYTE COUNT of C[N+](C)(C)CCOC(N)=O.[Cl-]
5.49

# input molecule: NN [HYDRAZINE] ; wanted: its ERYTHROCYTE COUNT
5.88

Given CCN(CC)C(=S)SSC(=S)N(CC)CC , state its recorded ERYTHROCYTE COUNT.
5.84

Dear colleague, I am looking for the recorded ERYTHROCYTE COUNT of the following molecule: CN1C(=O)OC(C)(C)C1=O
6.02
